test: pharmacokinetic properties in mouse after single intravenous and oral administration; format: in vivo; conditions: female, plasma, 0.2 mg/kg, PK data in mouse
measured endpoint: clearance (mL/min/kg)
Just the number in mL/min/kg, nothing appended.

Q. Write down clearance measured for item `COc1ccc(-c2cnn(C)c2)c2nc(NC(=O)N3CC[C@@]4(CCCOC4)C3)[nH]c12`
A. 9.43

Q. Specify reported clearance for the compound shown: `COc1ccc(-c2cnn(C)c2)c2nc(NC(=O)c3ccc(CN4CCCC4=O)cc3)[nH]c12`
A. 22.5

Now for another entry.
Q. Supply recorded clearance for `COc1ccc(-c2cnn(C)c2)c2nc(NC(=O)N3CC[C@]4(CCOC4)C3)[nH]c12` here.
A. 5.4

====

# maps each entry to its IC50
Molecular target: human A1 receptor (Homo sapiens)
Construct: expressed in transfected cells; host or cells: CHO
Sequence (P30542 1-326): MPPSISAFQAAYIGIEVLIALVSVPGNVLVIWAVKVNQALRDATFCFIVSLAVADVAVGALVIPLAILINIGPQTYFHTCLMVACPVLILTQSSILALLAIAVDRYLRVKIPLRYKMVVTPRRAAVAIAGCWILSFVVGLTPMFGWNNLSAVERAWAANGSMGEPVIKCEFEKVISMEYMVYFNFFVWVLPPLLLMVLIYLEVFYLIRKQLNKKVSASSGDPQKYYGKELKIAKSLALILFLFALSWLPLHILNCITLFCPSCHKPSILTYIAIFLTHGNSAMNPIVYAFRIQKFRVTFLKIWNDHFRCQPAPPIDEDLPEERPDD
Assay: functional cAMP (HTRF) assay, recombinant CHO cells expressing human A1 receptor, forskolin, agonist CPA
Format: cell-based

Q. // fetch IC50; item: COCCn1cc(C(=O)Nc2nc3c(-c4ccnc5[nH]ccc45)ccc(OC)c3[nH]2)cn1 [compound 278] ; system: human A1 receptor (Homo sapiens)
A. > 1000 nM

Q. Quote IC50 with test system human A1 receptor (Homo sapiens) for COc1ccc(C2CCCCC2)c2nc(NC(=O)N3CCC(C)(O)CC3)[nH]c12 [compound 16]
A. > 1000 nM

Q. Report the value of IC50 obtained on human A1 receptor (Homo sapiens) for COc1ccc(-c2ccncc2)c2[nH]c(NC(=O)c3c[nH]cn3)nc12 [compound 266] .
A. > 1000 nM

Continuing:
Q. Under human A1 receptor (Homo sapiens), report IC50 for COc1ccc(-c2ccccc2)c2nc(NC(=O)c3c[nH]c(C)n3)[nH]c12 [compound 255]
A. < 1000 nM

Q. Check human A1 receptor (Homo sapiens) data and give IC50 for COCCn1cc(C(=O)Nc2nc3c(-c4cccc5[nH]ncc45)ccc(OC)c3[nH]2)cn1 [compound 279] .
A. < 1000 nM

Q. System human A1 receptor (Homo sapiens). Read-out IC50. Item COc1ccc(-c2ccccc2)c2nc(NC(=O)c3cn(C)nc3C)[nH]c12 [compound 269] . Report value.
A. > 1000 nM

Q. # return IC50 for COc1ccc(-c2ccc(F)cc2)c2nc(NC(=O)c3cnn(C)c3)[nH]c12 [compound 318] , test system: human A1 receptor (Homo sapiens)
A. < 100 nM

Q. Specify IC50 for COc1ccc(-c2cccnc2)c2nc(NC(=O)c3ccc(C(=O)N(C)C)cc3)[nH]c12 [compound 259] , system human A1 receptor (Homo sapiens).
A. < 1000 nM

Q. Find the measured IC50 of COCCn1cc(C(=O)Nc2nc3c(-c4cccc5c4CCN5)ccc(OC)c3[nH]2)cn1 [compound 283] with human A1 receptor (Homo sapiens) as test system.
A. > 1000 nM

Q. Give reported IC50 for COc1ccc(C2CCOCC2)c2nc(NC(=O)N3CCC(O)(Cc4ccccc4)CC3)[nH]c12 [compound 103] (human A1 receptor (Homo sapiens))
A. < 1000 nM

====

target: UniProtKB P29274; experiment: functional cAMP (HTRF) assay, recombinant HEK293 cells expressing human A2A receptor, agonist NECA
Sequence (P29274 whole entry): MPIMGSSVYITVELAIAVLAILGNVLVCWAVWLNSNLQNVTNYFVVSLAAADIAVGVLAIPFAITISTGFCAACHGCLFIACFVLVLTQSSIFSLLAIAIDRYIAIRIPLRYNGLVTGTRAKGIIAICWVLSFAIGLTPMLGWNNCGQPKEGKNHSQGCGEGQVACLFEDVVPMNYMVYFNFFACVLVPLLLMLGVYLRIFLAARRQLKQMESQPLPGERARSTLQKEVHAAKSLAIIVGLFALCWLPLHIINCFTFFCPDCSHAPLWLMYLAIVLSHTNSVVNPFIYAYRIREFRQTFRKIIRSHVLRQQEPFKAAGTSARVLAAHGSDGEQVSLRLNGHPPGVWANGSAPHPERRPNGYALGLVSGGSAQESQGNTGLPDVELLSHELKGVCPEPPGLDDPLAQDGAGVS
Listed next: entries and their corresponding IC50.

Take a look at these entries with their results.
Q. Provide only the value of recorded IC50 for COc1cc(F)c(C2=CCOCC2)c2nc(NC(=O)c3cnn(C)c3)[nH]c12 [compound 264]
A. < 0.01 µM

Q. Name the recorded IC50 of the item COc1ccc(C2CCOCC2)c2nc(NC(=O)c3cnc(C)o3)[nH]c12 [compound 234] in your answer.
A. < 0.01 µM

Q. Fill in reported IC50 for this entry: COc1ccc(-c2cnn(C)c2)c2nc(NC(=O)c3ccnc(N4CC[C@](C)(O)C4)c3)[nH]c12 [compound 104]
A. < 0.01 µM

***
Q. Return the recorded IC50 value; entry: COCCn1cc(C(=O)Nc2nc3c(-c4cccc5c4CCN5)ccc(OC)c3[nH]2)cn1 [compound 283]
A. < 0.1 µM

Q. # return recorded IC50 for input COc1ccc(-c2ccccc2)c2nc(NC(=O)c3cncs3)[nH]c12 [compound 256]
A. < 0.01 µM

Q. Identify IC50 associated with the compound COc1ccc(N2CCCCCC2)c2nc(NC(=O)N3CCC(C)(O)CC3)[nH]c12 [compound 216]
A. < 0.1 µM

====

Reported values of IC50 for individual entries
molecular target: human A3 receptor (Homo sapiens, UniProt P0DMS8); experiment: functional cAMP (HTRF) assay, recombinant CHO cells expressing human A3 receptor, forskolin, agonist IB-MECA
Sequence (P0DMS8 whole entry): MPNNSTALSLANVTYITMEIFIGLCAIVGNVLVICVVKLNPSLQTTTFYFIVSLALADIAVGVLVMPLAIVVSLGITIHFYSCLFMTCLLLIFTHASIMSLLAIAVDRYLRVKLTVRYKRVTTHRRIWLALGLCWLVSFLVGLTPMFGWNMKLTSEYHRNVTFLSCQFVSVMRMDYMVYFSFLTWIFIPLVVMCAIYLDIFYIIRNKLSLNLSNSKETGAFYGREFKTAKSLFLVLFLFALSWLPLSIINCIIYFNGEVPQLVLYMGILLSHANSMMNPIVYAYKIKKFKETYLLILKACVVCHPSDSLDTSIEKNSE

Q. Provide only the value of recorded IC50 for COc1ccc(-c2cccc3c2CCN3)c2nc(NC(=O)N3CCC(C)(O)CC3)[nH]c12 [compound 292]
A. > 1000 nM

Q. Please report the measured IC50 for CCCC(CC)c1ccc(OC)c2[nH]c(NC(=O)c3cnn(C)c3)nc12 (centres unmarked) [compound 233]
A. < 10 nM

Q. For the compound COc1ccc(-c2ccccc2)c2nc(NC(=O)c3cnc4cccnn34)[nH]c12 [compound 288] , report IC50.
A. < 1000 nM

New cases:
Q. // fetch IC50 given entry COc1cc(F)c(C2=CCOCC2)c2nc(NC(=O)c3cnn(C)c3)[nH]c12 [compound 264]
A. < 1000 nM

Q. Look up and report measured IC50 for this entry: COc1ccc(N2CCCOCC2)c2nc(NC(=O)c3ccc(C(=O)N(C)C)cc3)[nH]c12 [compound 313]
A. > 1000 nM

Q. Using the record for COc1ccc(N2CCCCCC2)c2nc(NC(=O)N3CCC(C)(O)CC3)[nH]c12 [compound 216] , state its measured IC50.
A. > 1000 nM

Q. Find the measured IC50 of COCCN(C)C(=O)c1ccc(C(=O)Nc2nc3c(OC)ccc(-c4ccccc4)c3[nH]2)cc1 [compound 295] and report it.
A. < 1000 nM

Q. Provide one value: measured IC50 of COc1ccc(-c2ccc3c(cnn3C)c2)c2nc(NC(=O)N3CCC(C)(O)CC3)[nH]c12 [compound 273]
A. > 1000 nM

====

Listed here: items and their measured IC50.
molecular target: UniProt P29274; test: functional cAMP (HTRF) assay, recombinant HEK293 cells expressing human A2A receptor, agonist NECA

Q. For the compound `COc1ccc(-c2ccccc2F)c2nc(NC(=O)c3ccc(C(=O)N(C)C)cc3)[nH]c12` , give its measured IC50 value.
A. < 0.01 µM

====

pIC50 overview
biological target: human A3 receptor (Homo sapiens); construct: expressed in transfected cells; host or cells: CHO; assay: functional cAMP (HTRF) assay, recombinant CHO cells expressing human A3 receptor, forskolin, agonist IB-MECA; format: cell-based
pIC50: −log10 of the molar value.

The following molecules have reported results that may help.
Q. State measured pIC50 of the molecule `COc1ccc(-c2cnn(C)c2)c2nc(NC(=O)c3ccc(C(=O)N(C)C)nc3)[nH]c12` with human A3 receptor (Homo sapiens).
A. < 6.00

Q. # return pIC50 of `COc1ccc(N2CCOCC2)c2nc(NC(=O)c3ccc(F)cc3)[nH]c12` (system: human A3 receptor (Homo sapiens))
A. > 7.00

Q. Please tell me the measured pIC50 for `COc1ccc(C2CCOCC2)c2nc(NC(=O)c3ccc(Cn4ccnc4)cc3)[nH]c12` ; system: human A3 receptor (Homo sapiens).
A. < 6.00

Q. Consider the molecule `COc1ccc(C2CCOCC2)c2nc(NC(=O)N3CCC(O)(Cc4ccccc4)CC3)[nH]c12` tested on human A3 receptor (Homo sapiens); state its pIC50.
A. < 6.00

Q. Check human A3 receptor (Homo sapiens) data and give pIC50 for `COc1ccc(N2CCOCC2)c2nc(NC(=O)c3cnn(C)c3)[nH]c12` .
A. < 6.00

Shifting focus to the molecule that follows.
Q. Please report pIC50 with human A3 receptor (Homo sapiens) for item `CCCC1(c2ccc(OC)c3[nH]c(NC(=O)c4cnn(C)c4)nc23)CC1` .
A. > 6.00

====

The reader will find reported IC50 values listed item by item below.
Target: human A1 receptor (Homo sapiens, UniProt P30542)
Sequence (P30542 1-326): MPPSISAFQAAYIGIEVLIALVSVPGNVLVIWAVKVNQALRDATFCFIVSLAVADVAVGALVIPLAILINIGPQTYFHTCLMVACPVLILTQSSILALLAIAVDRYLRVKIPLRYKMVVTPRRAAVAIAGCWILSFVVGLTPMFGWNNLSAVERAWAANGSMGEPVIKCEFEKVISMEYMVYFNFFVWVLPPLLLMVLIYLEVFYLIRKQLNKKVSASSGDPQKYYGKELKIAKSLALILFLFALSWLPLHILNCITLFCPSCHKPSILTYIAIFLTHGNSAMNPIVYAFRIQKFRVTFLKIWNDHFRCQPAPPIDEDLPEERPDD
Experiment: functional cAMP (HTRF) assay, recombinant CHO cells expressing human A1 receptor, forskolin, agonist CPA
Experimental: The functional activities of human A2A, A2B, A1 and A3 receptors were determined by quantification of cAMP, being the second messenger for adenosine receptors. […] Cells were seeded into 384-well plates, forskolin, test compounds and agonists (CPA for A1- and IB-MECA for A3-receptor) were added. After 30 min incubation, HTRF reagents (cAMP dynamic 2, Cis Bio) were added and the cellular cAMP levels were determined using the ENVISION (Perkin Elmer) plate reader. […]

Q. # return IC50 for COc1ccc(-c2cnn(C)c2)c2nc(NC(=O)c3ccc(CN(C)C)cc3)[nH]c12 [compound 48] , test system: human A1 receptor (Homo sapiens, UniProt P30542)
A. > 1000 nM

Q. Param request: IC50 | system human A1 receptor (Homo sapiens, UniProt P30542) | item COc1cc(F)c(C2=CCOCC2)c2nc(NC(=O)c3cnn(C)c3)[nH]c12 [compound 264]
A. > 1000 nM

Q. GET IC50 | system: human A1 receptor (Homo sapiens, UniProt P30542) | item: COc1ccc(-c2cnn(C)c2)c2nc(NC(=O)c3cncs3)[nH]c12 [compound 219]
A. < 1000 nM

Q. State IC50 on human A1 receptor (Homo sapiens, UniProt P30542). Entry: COc1ccc(N2CCOCC2)c2nc(NC(=O)c3ccc(Cn4ccnc4)cc3)[nH]c12 [compound 76]
A. > 1000 nM

Q. Send back human A1 receptor (Homo sapiens, UniProt P30542) IC50 of COc1ccc(-c2cnn(C)c2)c2nc(NC(=O)c3cnc(C)s3)[nH]c12 [compound 165] only.
A. < 1000 nM

Q. Give human A1 receptor (Homo sapiens, UniProt P30542) IC50 for the following molecule: COc1ccc(N2CCOCC2)c2nc(NC(=O)c3ccc(F)cc3)[nH]c12 [compound 63]
A. > 1000 nM

Q. Answer with IC50 of COc1ccc(C2CCOCC2)c2nc(NC(=O)c3cnc(C)s3)[nH]c12 [compound 227] measured for human A1 receptor (Homo sapiens, UniProt P30542).
A. > 1000 nM

Q. State IC50 (human A1 receptor (Homo sapiens, UniProt P30542)) of COc1ccc(-c2cccc3c2CCN3)c2nc(NC(=O)N3CCC(C)(O)CC3)[nH]c12 [compound 292] .
A. < 10 nM

Q. For human A1 receptor (Homo sapiens, UniProt P30542), give the measured IC50 of the entry COc1ccc(-c2ccccc2)c2nc(NC(=O)N3CCC(C)(O)CC3)[nH]c12 [compound 12]
A. < 1000 nM

Q. Please indicate recorded IC50 of COCCOc1cccc(-c2ccc(OC)c3nc(NC(=O)c4c[nH]cn4)[nH]c23)c1 [compound 267] measured with human A1 receptor (Homo sapiens, UniProt P30542).
A. < 1000 nM
